# Test system: SNB-75
# Test: NCI tumour cell line growth inhibition, 48 h
Activity calls are given as the source filed them. Rule as the data show it: active = GI50 up to about 1.1 µM and inactive = higher.
Labels: active, inactive

1) Oc1ccc2c3c1OC1c4[nH]ncc4C[C@H]4[C@@H](C2)N(CC2CC2)CC[C@]314 (stereo partly specified)
inactive
2) CCOC(=O)c1nnsc1N/N=C\c1ccc([N+](=O)[O-])cc1
inactive
3) CN(C)c1ccc(C=C2N=C(c3ccccc3)N(c3cc(C(=O)c4ccccc4)ccc3N3C(=O)/C(=C/c4ccc(N(C)C)cc4)N=C3c3ccccc3)C2=O)cc1
inactive
4) C/C(=N\NC(=S)N1CCN(c2ccccn2)CC1)c1ncccn1
inactive
5) Cc1cn(C2CC(O)C(COP(=O)(O)OC3CC(n4c[n+]([BH2-]C#N)c5c(=O)[nH]c(N)nc54)OC3CO)O2)c(=O)[nH]c1=O (stereo unspecified)
inactive
6) CNC(=O)NC(CCCCNC(=O)OCc1ccccc1)C(=O)OCc1ccccc1 (stereo unspecified)
inactive
7) Cc1cccc2c3ccc4c(c3n(C)c12)C(=O)C=CC4=O
inactive
8) N#Cc1nc(Nc2cccc3ccccc23)sc1N
inactive
9) CCN(CC)CCNc1c(OC)cc(C)c2sc3ccccc3c(=O)c12
inactive
10) COc1cc2c(cc1OC)C1[C@@H](c3ccccc3)OCN1CC2 (stereo partly specified)
inactive
11) CC(=O)/C(=C/n1c(=S)[nH]c2ccccc21)C(=O)Nc1ccccc1C
inactive
12) CCOC(=O)CSc1nc(N)c2c(-c3ccccc3)c3c(nc2n1)CCCC3
inactive
13) C1=CC=C2NCCCCCC/N=C3\C=CC=CC=C3NCCc3cccc(c3)CC/N=C/2C=C1
inactive
14) N#Cc1ncn(CCO)c1N
inactive
15) NC(=O)NN=C(CS)CS
inactive
16) C=C(C)CC(C(=O)O)c1ccc(C)cc1 (stereo unspecified)
inactive
17) COc1ccc(CC2c3c(cc(OC)c(OC)c3OC)CCN2C)cc1OC (stereo unspecified)
inactive
18) COC(=O)C1CN=CN1CCc1ccccc1 (stereo unspecified)
inactive
19) CCN(CC)CCC(=O)/C=C/c1ccc(C)cc1
inactive
20) CN(C)CC1CCCC/C1=N/OC(=O)c1ccc(Cl)c(Cl)c1 (stereo unspecified)
inactive
21) CC(=O)NCCc1c[nH]c2ccc(Cl)cc12
inactive
22) COc1ccc2c(c1)C/C(=C\c1cccc3ccccc13)C2=O
inactive
23) N/C(=N\c1ccc(Cl)cc1)NS(=O)(=O)c1c(C(F)(F)F)cccc1C(F)(F)F
inactive
24) C=CC1(C(=O)O)CCC(C(C)(C)C)CC1 (stereo unspecified)
inactive
25) O=c1c(O)c(-c2ccc(O)c(O)c2)oc2cc(O)cc(O)c12
inactive
26) COc1cc2oc(-c3ccc4c(c3)OCO4)c(OC)c(=O)c2c(OC)c1OC
inactive
27) CCC(C)C1=C(O)[N+]2([O-])Oc3ccc(-c4c(O)c(O)c(-c5ccc(O)cc5)c(OC(C)=O)c4OC(C)=O)cc3OC2(C(C)CC)C(=O)N1O (stereo unspecified)
inactive
28) N=C(N)c1ccc(/C=C/c2ccc(C(=N)N)cc2)cc1
inactive
29) COc1cc(/C=C2\NC(=S)C3Cc4c(OC)c(C)c(OC)c(OC)c4C2N3C)c(OC)c(C)c1OC (stereo unspecified)
inactive
30) Cc1c(Cc2ccccc2)c(Cc2ccccc2)c(C)[s+]1[O-]
inactive
31) CCCN(CCC)C(=O)Cc1c2n(c3ccccc13)CCCc1ccccc1-2
inactive
32) O=C(C=C1SCCS1)/C=C\c1ccc(Cl)cc1
inactive
33) CC1(C)SCc2nc3ccccc3n21
active
34) COc1ccc(/C=c2\s/c(=C3/SC(=S)N(c4ccccc4)C3=O)n(-c3ccccc3)c2=O)cc1
inactive
35) CCCCCCCCCCCC/C=C\CC[C@@H](O)[C@H](O)CC[C@H](O)[C@@H]1CC[C@@H](CCCCCCCC2=C[C@H](C)OC2=O)O1
inactive
36) Cc1nc(C(N)=S)sc1C(=O)CC(=O)C(=O)Nc1ccc(Br)cc1
inactive
37) O=C(CNC(=O)OCc1ccccc1)NCCCCC(NC(=O)OCc1ccccc1)C(=O)O (stereo unspecified)
inactive
38) Cc1ccc(S(=O)(=O)N(CC(O)COc2ccccc2)c2c(F)c(F)c(F)c(F)c2F)cc1 (stereo unspecified)
inactive
39) O=c1[nH]nc(-c2ccccc2)n1/N=C\CC/C=N\n1c(-c2ccccc2)n[nH]c1=O
inactive
40) O=C1C2C3C=CC(C2C(=O)N1COP(=O)(O)O)C1C2C(=O)N(COP(=O)(O)O)C(=O)C2C31 (stereo unspecified)
inactive
41) COc1ccc(N2C(=O)c3cc([N+](=O)[O-])cnc3S2(=O)=O)cc1
inactive
